Hi there, I'd appreciate the recorded log10 of AC50 for every entry that follows.
Test system: Plasmodium falciparum Dd2 asexual blood stage parasites
Assay: microbe, parasite or virus in culture
Set-up: species or system Plasmodium falciparum Dd2 in human erythrocytes; single determination (one 11-point concentration-response curve)
Conditions: Plasmodium falciparum, DD2, Erythrocyte, 72 h; read-out: AC50
Scale: decimal log of AC50, AC50 in µM.

Below: 2 molecules and their reported log10 of AC50.
MOLECULE	TGT	log10 of AC50
Cc1cn2nc(C(=O)Nc3ccc(N(C)C)cc3)cc2c(N(C)Cc2ccccc2)n1	Plasmodium falciparum Dd2 asexual blood stage parasites	1.18
COc1ccc(C(=O)N2CCC3(CC2)OC(=O)N(Cc2ccc(O)cc2)C3(C)c2ccccc2)cn1 (stereo not shown)	Plasmodium falciparum Dd2 asexual blood stage parasites	0.82

// each molecule listed below needs its log10 of AC50
1. O=C(Nc1cc(C(F)(F)F)cc(C(F)(F)F)c1)Nc1cnn(-c2ccc([N+](=O)[O-])cc2)c1C(F)(F)F
2. COc1ccc(CN2CC3(CCN(C(=O)Nc4ccc(OC)c(F)c4)CC3)C2=O)cc1
3. Cc1cccc(Nc2nc(NCc3ccco3)c3ccccc3n2)c1
4. CCc1cccc(NC(c2nnc(-c3ccccc3)o2)c2ccc(F)cc2Cl)c1 (stereo not shown)
5. CN(C)Cc1c(O)ccc2oc(Cc3ccccc3)cc12
6. CCN1CCN(Cc2ccc(NC(=O)c3cc(NC(=O)C(=O)c4c[nH]c5ccccc45)cc(OC)c3)cc2C(F)(F)F)CC1
7. CCOc1ccc(NS(=O)(=O)c2csc(C(N)=O)c2)cc1

Given back:
1: 0.82; 2: 1.03; 3: 0.67; 4: 0.82; 5: -0.37; 6: -0.18; 7: 0.88

These data points were gathered from paper PMC7822874.
